Tested on: T-47D breast
Experiment: NCI-60 one-dose screen, 48 h
Details: 10 µM
The panel holds about 83,000 compounds, 20% with a hit somewhere; the sample as a whole holds those more often. Activity calls are given as the source filed them. Rule for the calls: active = growth percent below 10; inactive = the rest.
Pick one and only one: active, inactive

Q: What outcome does the record of this test show for CCN(CC)c1ccc(NC(C(=O)c2ccccc2)c2ccccc2)cc1 (configuration not stated) ?
Ans: active

Q: What outcome does the record of this test show for Clc1ccc(/C=C/c2ccccn2)c(Cl)c1 ?
Ans: inactive

Q: What outcome does the record of this test show for CC(C)(C)CC(C)(C)c1ccc(OCCO)cc1 ?
Ans: inactive

Q: What outcome does the record of this test show for O=C(/C=C/c1ccccn1)c1ccccc1 ?
Ans: inactive

Q: What outcome does the record of this test show for COc1c(O)cc2oc3cc(O)c(CC=C(C)C)c(O)c3c(=O)c2c1CC=C(C)C ?
Ans: inactive

Q: What outcome does the record of this test show for Cc1nc(N=C(N)N)nc2ccc3ccccc3c12 ?
Ans: active

Q: What outcome does the record of this test show for O=[N+]([O-])C1=C(c2ccccc2)SC=C(c2ccccc2)S1 ?
Ans: inactive

---

System: T-47D breast
Assay: NCI-60 one-dose screen, 48 h (100 = growth as untreated, 0 = no growth, -100 = all killed)
Settings: 10 µM
About 83,000 compounds went through this panel and 20% of them were active in at least one assay; those are over-represented in the sample as a whole.
Listing of entries alongside the reported growth.
Answer format: numeric, % implied, no suffix.

[[record]]
molecule = "Oc1ccc(N=Nc2ccccn2)c(O)c1"
measured_value = 37.3

[[record]]
molecule = "CC1=CC(C)=Nc2ccc(Cl)cc2N1"
measured_value = 102

[[record]]
molecule = "O=C(/C=C/c1cccnc1)c1ccccc1"
measured_value = 86.5

[[record]]
molecule = "COc1cccc2c1C(=O)c1c(O)c3c(c(O)c1C2=O)C[C@@](O)(C(=O)CO)C[C@@H]3OC1CC(N)C(O)C(C)O1 (stereo partly specified)"
measured_value = -11.3

[[record]]
molecule = "N=S(c1ccccc1[N+](=O)[O-])c1ccccc1[N+](=O)[O-]"
measured_value = -2.34

[[record]]
molecule = "CCCCCC(C)c1ccc(O)c(C)c1 (stereo unspecified)"
measured_value = 101


Q: Missing value: growth, T-47D breast, entry NC(=O)SCC(=O)NNc1ccccc1 . Fill in?
Ans: 73.5

Q: Missing value: growth, T-47D breast, entry CC[N+](CC)=c1ccc2nc3c(cc(N)c4ccccc43)oc-2c1 . Fill in?
Ans: -44

Q: Missing value: growth, T-47D breast, entry CC(=O)Nc1cc(C)ccc1C . Fill in?
Ans: 107

---

Test system: HCT-15 colon
Experiment: NCI-60 one-dose screen, 48 h
Settings: 10 µM
This is part of a sample that, as a whole, favours compounds with a hit. Of some 83,000 tested, about 20% had one in any assay. Activity calls are given as the source filed them. How the source made its calls: active means growth percent below 10; inactive means the rest.
Pick one and only one: 1 for active, -1 for inactive

Field: example entries. Status: answers known.
[[record]]
compound = "C[n+]1c2cc(N)ccc2cc2ccc(N)cc21"
class_assignment = -1

[[record]]
compound = "CCN(CC)c1ccc(NC(C(=O)c2ccccc2)c2ccccc2)cc1 (configuration not stated)"
class_assignment = 1

[[record]]
compound = "COc1c(O)cc2oc3cc(O)c(CC=C(C)C)c(O)c3c(=O)c2c1CC=C(C)C"
class_assignment = -1

[[record]]
compound = "CC1=CC(C)=Nc2ccc(Cl)cc2N1"
class_assignment = -1

[[record]]
compound = "COc1cccc2c1C(=O)c1c(O)c3c(c(O)c1C2=O)C[C@@](O)(C(=O)CO)C[C@@H]3OC1CC(N)C(O)C(C)O1 (some centres not stated)"
class_assignment = -1


Q: What outcome does the record of this test show for O=c1ccn(C2CC(O)C(COC(c3ccccc3)(c3ccccc3)c3ccccc3)O2)c(=O)[nH]1 (configuration not stated) ?
Ans: -1

Q: What outcome does the record of this test show for CCCCCCCCCCCCCCCCCCOCC(COP(=O)([O-])OCC[N+](C)(C)C)OC (configuration not stated) ?
Ans: -1

Q: What outcome does the record of this test show for CS(=O)(=O)OC1CC(n2ccc(=O)[nH]c2=O)OC1COC(c1ccccc1)(c1ccccc1)c1ccccc1 (configuration not stated) ?
Ans: -1
